// reported activity coefficient per item
Assay: activity coefficient (dimensionless); of the first substance listed, at infinite dilution; xn = mol fraction of the nth substance listed
Conditions: 373.15 K; 101 kPa; Liquid; Chromatography; x1 = 0
quantity.kind: activity coefficient

[
  {
    "compound": "CCCCCC [hexane] + CCCCCCCCCCCCCCCCCCC(CCCCCCCCCCCCCCCCCC)CCCCC(CCCCCCCCCCCCCCCCCC)CCCCCCCCCCCCCCCCCC",
    "data.value": 0.344
  },
  {
    "compound": "C#CCCCCCCC [1-nonyne] + CCCCCCCCCCCCCCCCCCC(CCCCCCCCCCCCCCCCCC)CCCCC(CCCCCCCCCCCCCCCCCC)CCCCCCCCCCCCCCCCCC",
    "data.value": 0.445
  },
  {
    "compound": "CCC#CCC [3-hexyne] + CCCCCCCCCCCCCCCCCCC(CCCCCCCCCCCCCCCCCC)CCCCC(CCCCCCCCCCCCCCCCCC)CCCCCCCCCCCCCCCCCC",
    "data.value": 0.404
  },
  {
    "compound": "C=CCCCCCCCCCCC [1-tridecene] + CCCCCCCCCCCCCCCCCCC(CCCCCCCCCCCCCCCCCC)CCCCC(CCCCCCCCCCCCCCCCCC)CCCCCCCCCCCCCCCCCC",
    "data.value": 0.467
  },
  {
    "compound": "CC(C)C(C)(C)C [2,2,3-trimethylbutane] + CCCCCCCCCCCCCCCCCCC(CCCCCCCCCCCCCCCCCC)CCCCC(CCCCCCCCCCCCCCCCCC)CCCCCCCCCCCCCCCCCC",
    "data.value": 0.34
  },
  {
    "compound": "C=CCCCC [hex-1-ene] + CCCCCCCCCCCCCCCCCCC(CCCCCCCCCCCCCCCCCC)CCCCC(CCCCCCCCCCCCCCCCCC)CCCCCCCCCCCCCCCCCC",
    "data.value": 0.354
  },
  {
    "compound": "C=CCCCCCCCC [1-decene] + CCCCCCCCCCCCCCCCCCC(CCCCCCCCCCCCCCCCCC)CCCCC(CCCCCCCCCCCCCCCCCC)CCCCCCCCCCCCCCCCCC",
    "data.value": 0.411
  },
  {
    "compound": "CCCCCCCCC [nonane] + CCCCCCCCCCCCCCCCCCC(CCCCCCCCCCCCCCCCCC)CCCCC(CCCCCCCCCCCCCCCCCC)CCCCCCCCCCCCCCCCCC",
    "data.value": 0.399
  },
  {
    "compound": "C1CC[C@H]2CCCC[C@H]2C1 [cis-decahydronaphthalene] + CCCCCCCCCCCCCCCCCCC(CCCCCCCCCCCCCCCCCC)CCCCC(CCCCCCCCCCCCCCCCCC)CCCCCCCCCCCCCCCCCC",
    "data.value": 0.268
  },
  {
    "compound": "C[C@H]1CC[C@@H](C)CC1 [cis-1,4-dimethylcyclohexane] + CCCCCCCCCCCCCCCCCCC(CCCCCCCCCCCCCCCCCC)CCCCC(CCCCCCCCCCCCCCCCCC)CCCCCCCCCCCCCCCCCC",
    "data.value": 0.287
  },
  {
    "compound": "C1CCCCCC1 [cycloheptane] + CCCCCCCCCCCCCCCCCCC(CCCCCCCCCCCCCCCCCC)CCCCC(CCCCCCCCCCCCCCCCCC)CCCCCCCCCCCCCCCCCC",
    "data.value": 0.252
  }
]

###

Test: activity coefficient (dimensionless); of the first substance listed, at infinite dilution; xn = mol fraction of the nth substance listed
Settings: 433.15 K; 101 kPa; Liquid; Chromatography; x1 = 0
quantity.kind: activity coefficient

[
  {
    "molecule": "CCCCCCCCCCCCC [tridecane] + CCCCCCCCCCCCCCCCCCC(CCCCCCCCCCCCCCCCCC)CCCCC(CCCCCCCCCCCCCCCCCC)CCCCCCCCCCCCCCCCCC",
    "data.value": 0.481
  },
  {
    "molecule": "CCCCc1ccccc1 [butylbenzene] + CCCCCCCCCCCCCCCCCCC(CCCCCCCCCCCCCCCCCC)CCCCC(CCCCCCCCCCCCCCCCCC)CCCCCCCCCCCCCCCCCC",
    "data.value": 0.354
  },
  {
    "molecule": "C=CCCCCCC [oct-1-ene] + CCCCCCCCCCCCCCCCCCC(CCCCCCCCCCCCCCCCCC)CCCCC(CCCCCCCCCCCCCCCCCC)CCCCCCCCCCCCCCCCCC",
    "data.value": 0.377
  }
]

###

Experiment: activity coefficient (dimensionless); of the first substance listed, at infinite dilution; xn = mol fraction of the nth substance listed
Details: 418.15 K; 101 kPa; Liquid; Chromatography; x1 = 0

[
  {
    "compound": "CCCc1ccccc1 [propylbenzene] + CCCCCCCCCCCCCCCCCCC(CCCCCCCCCCCCCCCCCC)CCCCC(CCCCCCCCCCCCCCCCCC)CCCCCCCCCCCCCCCCCC",
    "activity coefficient": 0.331
  },
  {
    "compound": "CCc1ccccc1 [ethylbenzene] + CCCCCCCCCCCCCCCCCCC(CCCCCCCCCCCCCCCCCC)CCCCC(CCCCCCCCCCCCCCCCCC)CCCCCCCCCCCCCCCCCC",
    "activity coefficient": 0.304
  },
  {
    "compound": "C[C@H]1CC[C@H](C)CC1 [trans-1,4-dimethylcyclohexane] + CCCCCCCCCCCCCCCCCCC(CCCCCCCCCCCCCCCCCC)CCCCC(CCCCCCCCCCCCCCCCCC)CCCCCCCCCCCCCCCCCC",
    "activity coefficient": 0.298
  },
  {
    "compound": "C=CCCCCC [1-heptene] + CCCCCCCCCCCCCCCCCCC(CCCCCCCCCCCCCCCCCC)CCCCC(CCCCCCCCCCCCCCCCCC)CCCCCCCCCCCCCCCCCC",
    "activity coefficient": 0.357
  },
  {
    "compound": "CCCCc1ccccc1 [butylbenzene] + CCCCCCCCCCCCCCCCCCC(CCCCCCCCCCCCCCCCCC)CCCCC(CCCCCCCCCCCCCCCCCC)CCCCCCCCCCCCCCCCCC",
    "activity coefficient": 0.358
  },
  {
    "compound": "CCCCCCCCCCC [undecane] + CCCCCCCCCCCCCCCCCCC(CCCCCCCCCCCCCCCCCC)CCCCC(CCCCCCCCCCCCCCCCCC)CCCCCCCCCCCCCCCCCC",
    "activity coefficient": 0.442
  },
  {
    "compound": "C1=CCCCC1 [cyclohexene] + CCCCCCCCCCCCCCCCCCC(CCCCCCCCCCCCCCCCCC)CCCCC(CCCCCCCCCCCCCCCCCC)CCCCCCCCCCCCCCCCCC",
    "activity coefficient": 0.241
  },
  {
    "compound": "C1CC[C@H]2CCCC[C@H]2C1 [cis-decahydronaphthalene] + CCCCCCCCCCCCCCCCCCC(CCCCCCCCCCCCCCCCCC)CCCCC(CCCCCCCCCCCCCCCCCC)CCCCCCCCCCCCCCCCCC",
    "activity coefficient": 0.275
  },
  {
    "compound": "c1ccccc1 [benzene] + CCCCCCCCCCCCCCCCCCC(CCCCCCCCCCCCCCCCCC)CCCCC(CCCCCCCCCCCCCCCCCC)CCCCCCCCCCCCCCCCCC",
    "activity coefficient": 0.26
  },
  {
    "compound": "C=CCCCCCC [oct-1-ene] + CCCCCCCCCCCCCCCCCCC(CCCCCCCCCCCCCCCCCC)CCCCC(CCCCCCCCCCCCCCCCCC)CCCCCCCCCCCCCCCCCC",
    "activity coefficient": 0.375
  },
  {
    "compound": "CCC(C)C(C)CC (stereo unspecified) [3,4-dimethylhexane] + CCCCCCCCCCCCCCCCCCC(CCCCCCCCCCCCCCCCCC)CCCCC(CCCCCCCCCCCCCCCCCC)CCCCCCCCCCCCCCCCCC",
    "activity coefficient": 0.362
  }
]

###

Test: activity coefficient (dimensionless); of the first substance listed, at infinite dilution; xn = mol fraction of the nth substance listed
Conditions: 418.15 K; 101 kPa; Liquid; Chromatography; x1 = 0
activity coefficient: recorded values
quantity.kind: activity coefficient

[
  {
    "compound": "C1CCCCCCCCC1 [cyclodecane] + CCCCCCCCCCCCCCCCCCC(CCCCCCCCCCCCCCCCCC)CCCCC(CCCCCCCCCCCCCCCCCC)CCCCCCCCCCCCCCCCCC",
    "data.value": 0.287
  },
  {
    "compound": "CCCCCCCC [octane] + CCCCCCCCCCCCCCCCCCC(CCCCCCCCCCCCCCCCCC)CCCCC(CCCCCCCCCCCCCCCCCC)CCCCCCCCCCCCCCCCCC",
    "data.value": 0.384
  },
  {
    "compound": "Cc1ccccc1 [toluene] + CCCCCCCCCCCCCCCCCCC(CCCCCCCCCCCCCCCCCC)CCCCC(CCCCCCCCCCCCCCCCCC)CCCCCCCCCCCCCCCCCC",
    "data.value": 0.278
  },
  {
    "compound": "CC#CCCC [2-hexyne] + CCCCCCCCCCCCCCCCCCC(CCCCCCCCCCCCCCCCCC)CCCCC(CCCCCCCCCCCCCCCCCC)CCCCCCCCCCCCCCCCCC",
    "data.value": 0.378
  },
  {
    "compound": "C1CCCCCC1 [cycloheptane] + CCCCCCCCCCCCCCCCCCC(CCCCCCCCCCCCCCCCCC)CCCCC(CCCCCCCCCCCCCCCCCC)CCCCCCCCCCCCCCCCCC",
    "data.value": 0.253
  },
  {
    "compound": "C#CCCCCCC [1-octyne] + CCCCCCCCCCCCCCCCCCC(CCCCCCCCCCCCCCCCCC)CCCCC(CCCCCCCCCCCCCCCCCC)CCCCCCCCCCCCCCCCCC",
    "data.value": 0.412
  }
]
